- Experimental system: HsCYP51 (Homo sapiens)
- Sequence (Q16850 1-509): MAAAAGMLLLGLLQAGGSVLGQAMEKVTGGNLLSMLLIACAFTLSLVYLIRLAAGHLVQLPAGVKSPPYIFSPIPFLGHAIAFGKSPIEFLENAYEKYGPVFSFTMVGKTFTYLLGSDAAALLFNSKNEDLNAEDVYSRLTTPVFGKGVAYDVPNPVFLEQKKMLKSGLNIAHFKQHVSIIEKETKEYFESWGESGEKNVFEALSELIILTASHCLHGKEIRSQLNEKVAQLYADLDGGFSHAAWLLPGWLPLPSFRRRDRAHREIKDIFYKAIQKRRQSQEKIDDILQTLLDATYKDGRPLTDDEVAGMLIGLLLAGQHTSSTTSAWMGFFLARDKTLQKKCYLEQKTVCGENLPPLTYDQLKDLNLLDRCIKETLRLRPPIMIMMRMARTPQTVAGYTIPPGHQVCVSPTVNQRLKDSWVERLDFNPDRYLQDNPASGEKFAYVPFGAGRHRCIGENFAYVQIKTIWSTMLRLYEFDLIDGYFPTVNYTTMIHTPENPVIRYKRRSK
pIC50: −log10 of the molar value.
Outcome measure: pIC50

Compound	Result
CC(=O)N1CCN(c2ccc(OCC3COC(Cn4ccnc4)(c4ccc(Cl)cc4Cl)O3)cc2)CC1 (stereo not shown) [ketoconazole, reference compound]	~5.30

* * *

- Experimental system: C. albicans CYP51 (CaCYP51) (Candida albicans)
- Construct: made in house; host or cells: E. coli
- Assay notes: biochemical
- Format: binding
- Assay setup: 5 µM CaCYP51, Morrison equation; read-out: Kd with CaCYP51
pKd: −log10 of the molar value.
Outcome measure: pKd

Compound	Quantitative readout
CC(=O)N1CCN(c2ccc(NCC3COC(Cn4ccnc4)(c4ccc(Cl)cc4Cl)O3)cc2)CC1 (stereo not shown) [ketaminazole (16), ketaminazole]	7.37

* * *

- Experimental system: C. albicans CYP51 (CaCYP51) (Candida albicans, UniProt P10613)
- Construct: made in house; host or cells: E. coli
- Sequence (P10613 whole entry): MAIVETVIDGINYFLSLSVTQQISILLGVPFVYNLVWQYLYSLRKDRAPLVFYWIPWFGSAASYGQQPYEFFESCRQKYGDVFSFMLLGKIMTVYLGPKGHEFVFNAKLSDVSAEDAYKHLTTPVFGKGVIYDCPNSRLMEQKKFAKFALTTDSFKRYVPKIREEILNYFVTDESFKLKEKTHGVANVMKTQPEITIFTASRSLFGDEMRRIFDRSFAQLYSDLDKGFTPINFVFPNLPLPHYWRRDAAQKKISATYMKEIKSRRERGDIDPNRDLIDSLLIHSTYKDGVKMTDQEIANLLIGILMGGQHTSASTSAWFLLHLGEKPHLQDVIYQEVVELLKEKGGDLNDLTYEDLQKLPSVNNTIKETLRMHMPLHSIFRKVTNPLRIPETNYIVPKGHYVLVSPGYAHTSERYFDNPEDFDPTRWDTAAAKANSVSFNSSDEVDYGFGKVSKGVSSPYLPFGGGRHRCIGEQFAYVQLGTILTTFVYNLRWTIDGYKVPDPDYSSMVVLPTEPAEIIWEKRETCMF
- Assay notes: biochemical
- Assay type: binding
pKd: −log10 of the molar value.

Compound	Experimental system	pKd
CC(=O)N1CCN(c2ccc(OCC3COC(Cn4ccnc4)(c4ccc(Cl)cc4Cl)O3)cc2)CC1 (stereo not shown) [ketoconazole, reference compound]	C. albicans CYP51 (CaCYP51) (Candida albicans, UniProt P10613)	7.57

* * *

- Experimental system: Human leukocyte 5-lipoxygenase (Homo sapiens, UniProt P09917)
- Construct: made in house
- Sequence (P09917 whole entry): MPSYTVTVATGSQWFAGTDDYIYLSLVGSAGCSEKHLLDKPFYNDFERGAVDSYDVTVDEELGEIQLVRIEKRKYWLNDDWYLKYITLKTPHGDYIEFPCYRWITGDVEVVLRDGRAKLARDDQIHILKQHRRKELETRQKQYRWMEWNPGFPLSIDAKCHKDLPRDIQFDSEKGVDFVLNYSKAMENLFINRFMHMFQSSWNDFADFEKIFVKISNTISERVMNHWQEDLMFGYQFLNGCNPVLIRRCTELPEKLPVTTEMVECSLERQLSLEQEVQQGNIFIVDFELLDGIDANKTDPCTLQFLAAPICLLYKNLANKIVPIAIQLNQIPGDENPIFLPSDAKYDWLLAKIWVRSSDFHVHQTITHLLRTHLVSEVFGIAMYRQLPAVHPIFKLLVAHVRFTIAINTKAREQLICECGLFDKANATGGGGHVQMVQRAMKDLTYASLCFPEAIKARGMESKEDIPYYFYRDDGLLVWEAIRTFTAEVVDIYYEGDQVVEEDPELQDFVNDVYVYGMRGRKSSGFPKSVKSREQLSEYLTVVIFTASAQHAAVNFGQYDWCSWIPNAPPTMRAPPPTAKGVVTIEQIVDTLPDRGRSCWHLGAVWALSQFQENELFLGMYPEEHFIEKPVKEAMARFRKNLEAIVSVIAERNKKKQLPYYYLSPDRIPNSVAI
- Assay notes: Lipoxygenase UV-based inhibitor assay, 5-LOX
- Type: biochemical
- Protocol: Human leukocyte 5-lipoxygenase was expressed as a non-tagged protein and used as a crude ammonium sulfate protein fraction, as published previously. Inhibitor potencies were evaluated through use of the standard UV-based inhibitor assay. The initial rates were determined by following the formation of the conjugated diene product at 234 nm (ε = 25,000 M^−1 cm^−1) with a Perkin-Elmer Lambda 40 UV/Vis spectrophotometer at one substrate concentration and varying inhibitor concentrations. […]
pIC50: −log10 of the molar value.

Compound	pIC50
CC(=O)N1CCN(c2ccc(OCC3COC(Cn4ccnc4)(c4ccc(Cl)cc4Cl)O3)cc2)CC1 (stereo not shown) [ketoconazole, reference compound]	< 4.30

* * *

Collected IC50 values appear next to each entry.
- Experimental system: UniProt:P18054
- Sequence (P18054 1-663): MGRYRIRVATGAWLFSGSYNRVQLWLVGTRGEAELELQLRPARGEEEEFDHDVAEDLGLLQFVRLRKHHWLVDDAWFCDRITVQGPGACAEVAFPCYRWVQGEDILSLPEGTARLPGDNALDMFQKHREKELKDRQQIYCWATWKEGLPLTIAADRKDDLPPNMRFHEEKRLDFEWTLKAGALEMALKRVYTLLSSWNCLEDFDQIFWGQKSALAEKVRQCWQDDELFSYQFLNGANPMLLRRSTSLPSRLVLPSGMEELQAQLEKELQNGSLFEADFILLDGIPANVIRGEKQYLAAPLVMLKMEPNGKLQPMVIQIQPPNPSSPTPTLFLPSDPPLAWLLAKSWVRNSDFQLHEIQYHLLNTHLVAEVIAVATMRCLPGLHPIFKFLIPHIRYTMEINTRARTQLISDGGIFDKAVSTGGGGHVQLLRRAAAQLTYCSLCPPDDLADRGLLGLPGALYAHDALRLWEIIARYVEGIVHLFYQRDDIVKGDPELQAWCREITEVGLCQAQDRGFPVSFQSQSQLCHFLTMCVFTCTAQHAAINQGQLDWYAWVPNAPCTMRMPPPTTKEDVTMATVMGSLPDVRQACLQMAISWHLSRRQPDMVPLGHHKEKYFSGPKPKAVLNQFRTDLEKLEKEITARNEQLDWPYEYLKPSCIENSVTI

Compound	IC50
Cc1cc(C2CCCCC2)n(O)c(=O)c1 [ciclopirox, reference compound]	> 100 µM
Cc1ccc(CNc2ccc(N3CCCCC3)cc2)cc1 [Compound 15]	> 50 µM
CC(C)(C)OC(=O)N1CCN(c2ccc(NCc3ccc(-c4ccc(C#N)cc4)o3)cc2)CC1 [Compound 1]	> 150 µM
